Test system: BEL-7402 cells
Assay: MTT cell growth inhibition assay, BEL-7402
Type: cell-based, human
Conditions: MTT, 48 h incubation, Bel-7402

>  <compound>
COc1ccc(/C=C\c2cc(OC)c(OC)c(OC)c2)cc1OP(=O)(O)O [CA-4P, reference compound]

>  <IC50>
5.45 µM

$$$$

----------
>  <molecule>
Cc1ccc(/C=C(\C#N)c2ccc(C)cc2)cc1 [Compound 13a, (Z)-2,3-Di-p-tolylacrylonitrile]

>  <melting point>
68 to 70 °C

$$$$
>  <molecule>
Cc1ccc(/C(C#N)=C/c2ccccc2)cc1 [Compound 13d, (Z)-3-Phenyl-2-(p-tolyl)acrylonitrile]

>  <melting point>
145 to 147 °C

$$$$
>  <molecule>
COc1cc(/C(C#N)=C/c2ccccn2)cc(OC)c1OC [Compound 7b]

>  <melting point>
128 to 130 °C

$$$$
>  <molecule>
CCc1ccc(/C=C(\C#N)c2ccc(C)cc2)cc1 [Compound 13b]

>  <melting point>
112 to 114 °C

$$$$
>  <molecule>
CCc1ccc(/C=C(\C#N)c2cc(OC)c(OC)c(OC)c2)cc1 [Compound 6g]

>  <melting point>
76 to 78 °C

$$$$
>  <molecule>
COc1cc(/C=C(\C#N)c2cc(OC)c(OC)c(OC)c2)cc(OC)c1OC [Compound 6e]

>  <melting point>
84 to 86 °C

$$$$
>  <molecule>
COc1cc(/C(C#N)=C/c2ccc(C(C)C)cc2)cc(OC)c1OC [Compound 6f]

>  <melting point>
156 to 158 °C

$$$$
>  <molecule>
COc1cc(/C(C#N)=C/c2cccs2)cc(OC)c1OC [Compound 7a]

>  <melting point>
102 to 104 °C

$$$$
>  <molecule>
COc1cccc(/C=C(\C#N)c2cc(OC)c(OC)c(OC)c2)c1 [Compound 6c]

>  <melting point>
144 to 146 °C

$$$$
